Data credit: patent US20220144960A1

Biological target: T1, recombinant human CD30 extra cellular domain (ECD) protein (human, UniProt P28908 19-379)
T1 construct: Bought from R&D systems; also called rhCD30; human CD30 ECD
T1 sequence: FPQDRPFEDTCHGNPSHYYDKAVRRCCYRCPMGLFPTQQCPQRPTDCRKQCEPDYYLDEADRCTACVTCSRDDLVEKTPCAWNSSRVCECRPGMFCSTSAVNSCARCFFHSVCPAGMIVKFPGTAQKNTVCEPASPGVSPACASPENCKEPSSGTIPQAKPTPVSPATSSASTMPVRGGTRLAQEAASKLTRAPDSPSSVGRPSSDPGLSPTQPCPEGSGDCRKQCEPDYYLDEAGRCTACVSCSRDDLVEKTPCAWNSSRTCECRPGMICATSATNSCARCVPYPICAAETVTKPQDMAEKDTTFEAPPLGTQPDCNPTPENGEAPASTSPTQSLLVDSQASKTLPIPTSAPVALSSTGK
Assay: SPR Biacore T200, His-tagged sdAb/Fab captured, 100.0 nM human CD30 as analyte, single curve
measurement-type: koff (s⁻¹)

For orientation, consider the following solved cases.
AS57765 human Fab (Fab, V domains shown, Human Fab from a synthetic human Fab library, crude protein from E. coli with 6xHistidine tag) VH: EVQLVESGGGLVQPGGSLRLSCAASGFNIYYSYMHWVRQAPGKGLEWVAYIYPYSGSTSYADSVKGRFTISADTSKNTAYLQMNSLRAEDTAVYYCARPAVHWHGYGGGYYYGLDYWGQGTLVTVSS VL: DIQMTQSPSSLSASVGDRVTITCRASQSVSSAVAWYQQKPGKAPKLLIYSASSLYSGVPSRFSGSRSGTDFTLTISSLQPEDFATYYCQQAYYSLITFGQGTKVEIK; 0.0011
AS54233 sdAb (VHH, Camel sdAb) VHH: QVQLVESGGGSVQAGETLRLSCTASGFTFDGPDMAWYRQAPGNECELVSIISADGRTYYTDSVKGRFTASQDNAKNTVSLYLKSLQPEDTAVYYCAADPRRNCRGNCCGNWGPGTQVTVSS; 0.0046

A = AS48463 sdAb (VHH, Camel sdAb) VHH: QVHLMESGGGSVQAGETLRLSCTASGFTFANSDMGWYRQAPGNACELVSIISSHGGTTYYVDSVKGRFTISRHNAENTVYLRMTSLKPEDTALYYCVADPRSNCRGGYCCGYWGPGTQVTVSS
B = AS48433 sdAb (VHH, Camel sdAb) VHH: QIQLVESGGGSVQAGETLRLSCTASGSTFGDSDMGWYRQAPGNACELVSIISSDGRTYYVDSVKGRFTISQDNAVSTVYLQMNSLNPEDTGVYYCAADLRLNCRDGRCCGYWGQGTQVTVSS
Request: Sort A and B by koff descending and give the first. Answer by quoting the chosen item's label.
Result: A

P = AS53445 sdAb (VHH, Camel sdAb) VHH: QVQLVESGGGSVQAGGSLRLSCTASGYIFCMGWFRQAPGKAREGIATIYTGGDSTYYDDSVKGRFTISRDNAKNTVYLQMNSLKPEDTAMYYCAAGGQECYLTNWVSYWGQGTQVTVSS
Q = AS48542 sdAb (VHH, Camel sdAb) VHH: QMQLVESGGGSVQAGETLRLSCTTSAFTFDGPDMAWYRQAPGNECVLVSIISADGRTYYADSVKGRFTISRDNAKNTVFLNLNSLQPEDTAVYYCALDPRKNCRGGYCCANWGPGTQVTVSS
Request: Please compare: P and Q . Report which one has the smaller koff value. Give the chosen item's label as your response.
Result: Q
(Q: 0.0024 s⁻¹, P: 0.0085 s⁻¹)
